# TEST_SYSTEM: DRB1*0701 (human, UniProt P01903 26-216, limits assumed)
# MEASUREMENT_DESCRIPTION: competition vs 125I probe peptide, purified MHC II
PROPERTY_LABEL: pIC50
Lab note: report pIC50 as minus log10 of the concentration in molar units, number only.

These solved cases illustrate the format of a correct answer.
[
  {
    "BINDER": "DTGRKLFRVYSNFLR",
    "PROPERTY_LABEL": "pIC50",
    "MEASURED_NUMBER": 6.51
  },
  {
    "BINDER": "DTFRKLFRVYSNDLR",
    "PROPERTY_LABEL": "pIC50",
    "MEASURED_NUMBER": 6.09
  }
]

pIC50 reported for this binder `DTPRKLFRVYSNFLR` : 7.06

The binder identified as `DTFRKQFRVYSNFLR` registered its pIC50 at 5.52
